# TARGET OR TEST SYSTEM: Alpha-bungarotoxin (Bungarus multicinctus) (UniProt P60615)
# Sequence (P60615 whole entry, looked up): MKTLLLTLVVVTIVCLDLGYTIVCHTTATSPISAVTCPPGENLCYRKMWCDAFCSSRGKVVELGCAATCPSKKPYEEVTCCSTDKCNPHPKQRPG
# ASSAY METHOD TEXT: alpha-bungarotoxin binders on microarray, profiling panel, artefact control for SMM control protein annotation, biochemical, small-molecule microarray, Alexa647 label, 635/667 nm fluorescence (AID 1117)
# ASSAY SETUP: alpha-BTX-A647 binding fluorescence, higher = more signal
EXPERIMENTAL READOUT: composite z-score

INSERT INTO assay_data (molecule, experimental_readout, meas_value) VALUES
  ('O=C1C2=CC[C@H]3C(=O)N(Cc4ccccc4)C(=O)[C@H]3[C@H]2[C@H](O)[C@@H]2O[C@H]12', 'composite z-score', 0.0012),
  ('COc1ccc(O[C@H]2C=C[C@@H](C#Cc3ccccc3)O[C@@H]2CO)cc1', 'composite z-score', 0.439),
  ('CC(C)=NOC(C)CN1CCCCc2nc(C)c(C)cc21 (centres undefined)', 'composite z-score', -0.265),
  ('CCCNC(=O)OC[C@H]1O[C@H](CCON=C[C@@H](NS(=O)(=O)c2ccc(C)cc2)[C@H](C)C=CCC(=O)OC)C=C[C@@H]1Oc1ccc(OC)cc1', 'composite z-score', 0.0462);
